Values compiled from PubChem BioAssay AID2685.

ASSAY_NOTES: qHTS Assay for Lipid Storage Modulators in Drosophila S3 Cells;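 for cell number change: cells counted by Cell Tracker Red CMTPX staining in the red channel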
SETTINGS: BODIPY lipid droplet fluorescence, 18-24 h, cells fed with added oleic acid; measured here: cell count max response
Screen size: about 320,000 compounds; about 2,100 (0.66%) were called active. About 53% were inconclusive and are not listed. For the sample, actives were picked, then their nearest neighbours and some compounds at random.
Parameter cell number change: see the listing below.
ASSAY_READOUT: cell number change (%)

1. Brc1ccccc1OCCNCc1ccccc1
17.2
2. CCOc1ccccc1OCCCNCc1ccccc1
2.07
3. COc1cccc(-c2cc(C(=O)NCC3CCCO3)c3cc(Br)cc(C)c3n2)c1 (stereo not given)
-7.43
4. COc1ccc(C2=NOC(C(=O)Nc3ccc4c(c3)OCO4)C2)cc1 (stereo not given)
14.2
5. O=C(/C=C/c1ccc([N+](=O)[O-])cc1)c1cccs1
1.74
6. O=C(CC(=O)N/N=C/c1ccccc1)NCc1ccccc1
2.89
7. CC1(C)CC(CC(=O)O)CC(C)(C)N1
0.961
8. C=CCOc1ccccc1CN(C(=O)CCl)c1ccc2c(c1)OCO2
10.9
9. Cc1ccccc1NC(=S)NC(C)CCc1ccccc1 (stereo not given)
-4.86
10. COCCNCc1ccccc1
-17.8
11. CCn1cc(C2=NOC(C(=O)Nc3ccc4c(c3)OCO4)C2)c(C)n1 (stereo not given)
-25.4
12. CC(=O)Nc1cccc(/C(C)=N/NC(=O)c2ccc(NS(=O)(=O)c3cccs3)cc2)c1
10.3
13. CC(C)c1cc(C(=O)O)c2cnn(C(C)C)c2n1
-20.5
14. CC(=O)N/N=C(\C)CC(=O)Nc1cccc(C(F)(F)F)c1
5.44
15. CCC(Sc1nc(C)cc(=O)[nH]1)C(=O)Nc1nc2c(s1)CCCC2 (stereo not given)
-8.37

====

Parameter cell number change: see the listing below.
ASSAY_NOTES: qHTS Assay for Lipid Storage Modulators in Drosophila S3 Cells;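 for cell number change: cells counted by Cell Tracker Red CMTPX staining in the red channel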
SETTINGS: BODIPY lipid droplet fluorescence, 18-24 h, cells fed with added oleic acid; measured here: cell count max response
Among all 320,000 compounds or so, about 2,100 (0.66%) were called active. Inconclusive results (about 53%) are left out. Only a selection was taken, and actives are over-represented in it overall.
ASSAY_READOUT: cell number change (%)

1. COc1ccc(S(=O)(=O)N(C)c2ccc(C(=O)N3CCCCC3)cc2)cc1OC
2.05
2. Cc1ccc(Cl)cc1N(CC(=O)Nc1cccc(N(C)S(C)(=O)=O)c1)S(C)(=O)=O
-15.4
3. N#CC(c1ccc(F)cc1)c1ccc(C(=O)c2ccccc2)cc1 (centres undefined)
-0.0722
4. CN(c1cccc(NC(=O)CN(c2cccc(Cl)c2)S(=O)(=O)c2ccc(Cl)cc2)c1)S(C)(=O)=O
-18.4
5. COc1ccc(NS(=O)(=O)c2cccc(C(=O)N3CCN(Cc4cc(OC)ccc4OC)CC3)c2)cc1
1.47
6. CC(C)(C)c1ccc(C(=O)NCC(=O)N2CCCC2)cc1
12.2
7. COc1cccc(-c2ncc3ccccc3c2COC(=O)c2ccc(Br)cc2)c1
2.33
8. CC(/C=N/NC(=O)c1cccnc1)=C\c1ccco1
4.96
9. CN(c1ccc(C(=O)N2CCCCC2)cc1)S(=O)(=O)c1ccccc1
-27
10. CC(C)c1onc(C(=O)N2CCOCC2)c1[N+](=O)[O-]
-0.564
11. Cc1ccccc1NS(=O)(=O)c1ccc(C(=O)N2CCCCCC2)cc1
4.54
12. CN(c1ccccc1)S(=O)(=O)c1ccc(C(=O)N2CCCC2)cc1
-4.2
13. COc1ccc(NC(=O)c2oc3ccccc3c2C)cn1
13.5
14. CC(=O)Nc1ccc(OCC(=O)N2CCC(Cc3ccccc3)CC2)cc1
-1.18
15. Cc1cccc(NS(=O)(=O)c2ccc(C(=O)N3CCC3)cc2)c1C
19.3
16. CCCCN1C(=S)NC[C@@H]1Cc1cccc2ccccc12
2.45
17. CN(C)S(=O)(=O)N1CCN(C(=O)c2ccccc2)CC1
10.4
18. COC(=O)c1c(NC(=O)c2ccoc2C)sc(C)c1C
20.9
19. O=C(N/N=C/c1ccccc1Cl)c1cccc(F)c1
0.333
20. O=C(Nc1ccc(F)cc1)c1cccc(C(=O)Nc2ccc(F)cc2)c1
22.5
21. CCCCNC(=O)C1CCCN1C(=O)NC1CCCCC1 (centres undefined)
9.73
22. CCC(C)C(NC(=O)OCc1ccccc1)C(=O)NC(Cc1ccc(O)cc1)C(=O)OC (centres undefined)
15.2
23. CC(C)c1onc(C(=O)N2CCCCC2)c1[N+](=O)[O-]
-22.7
24. O=C(N/N=C/c1cccc2ccccc12)c1cccc(F)c1
-0.111
25. CCOCCCNC(=O)C1CCCN1C(=O)NC1CCCCC1 (centres undefined)
-3.91
26. O=C(COC(=O)CC12CC3CC(CC(Br)(C3)C1)C2)NC(=O)NCc1ccco1
-9.1
27. O=C(CCCc1ccccc1)N1CCc2ccccc21
4.72
28. COc1ccc(S(=O)(=O)N(C)c2ccc(C(=O)N3CCCC3)cc2)cc1OC
-7.14
29. CN(c1ccc(C(=O)N2CCCCCC2)cc1)S(=O)(=O)c1ccccc1
-9.4
30. C/C(=N\Nc1ccc([N+](=O)[O-])cc1)c1ccc2c(c1)OCO2
-16.9
31. COc1ccc(S(=O)(=O)N(C)CC(=O)N2CCCC2)cc1
-6.74
32. COc1ccc(S(=O)(=O)N(C)c2ccc(C(=O)N3CCC(C(N)=O)CC3)cc2)cc1
-14.8
33. O=C(COc1ccc(Cl)cc1)N(Cc1ccco1)C1CCS(=O)(=O)C1 (centres undefined)
5.12
34. CC(C)CCNC(=O)C1CCCN1C(=O)NC1CCCCC1 (centres undefined)
-5.55
35. CN1C(=S)SC(C)(NO)C1(C)C (centres undefined)
-11.6
36. COc1ccc(S(=O)(=O)N(C)c2ccc(C(=O)N3CCCC3)cc2)cc1
18.3
37. CCOCc1c(C(=O)Nc2ccc(OC)nc2)oc2ccccc12
-13.5
38. CN(c1ccc(C(=O)N2CCOCC2)cc1)S(C)(=O)=O
-14.6
39. O=C(N/N=C/c1cccc2ccccc12)c1ccncc1
0.153
40. Cc1ccc(S(=O)(=O)N(C)c2ccc(C(=O)N3CCC(C(N)=O)CC3)cc2)cc1
-5.24
41. CCc1ccccc1N(CC(=O)Nc1cccc(N(C)S(C)(=O)=O)c1)S(C)(=O)=O
5.08
42. O=C(Nc1ncccn1)c1cccc(F)c1
-18.7
43. Cn1cccc1C(=O)NC(=O)COC(=O)CC12CC3CC(CC(Br)(C3)C1)C2
2.25
44. CC(=O)Nc1ccc(C(=O)OCC(=O)N2CCC(Cc3ccccc3)CC2)cc1
-6.23

====

ASSAY_NOTES: qHTS Assay for Lipid Storage Modulators in Drosophila S3 Cells;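 for cell number change: cells counted by Cell Tracker Red CMTPX staining in the red channel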
SETTINGS: BODIPY lipid droplet fluorescence, 18-24 h, cells fed with added oleic acid; measured here: cell count max response
Hit rate of the full screen: of about 320,000 compounds, about 2,100 (0.66%) were called active. Not shown: some 53% with an inconclusive outcome. The sample holds actives, similar compounds and a random draw of the others, so the mix is not that of the screen.
So basically: cell number change at 10% or higher? That is Criterion met. Lower than 10%? That is Criterion not met.

1. CSCC(=O)N1CCCC(CO)(CCCc2ccccc2)C1 (stereo not drawn)
Criterion not met
2. CCCN(CCC(=O)Nc1ccccc1F)CC1CC1
Criterion met
3. Cc1ccc(OCC(=O)N2CCCC(CO)(CCOc3ccccc3)C2)cc1 (stereo not drawn)
Criterion met
4. N#C/C(=C\c1c(N2CCC(C(N)=O)CC2)nc2ccccn2c1=O)C(=O)NC1CCCCC1
Criterion not met
5. CC(=O)NCCC(=O)Nc1nc(-c2c[nH]c3ccccc23)cs1
Criterion not met
6. COc1ccc(-n2nnnc2SCC(=O)NNC(=O)c2ccc([N+](=O)[O-])cc2)cc1
Criterion not met
7. CC(C)(C)c1ccc(C(=O)N/N=C2\C3CN4CCN(C3)CC2(c2ccccc2)C4)cc1
Criterion not met
8. CCN(CC)CCNC(=O)CCn1nc(-c2ccc(Cl)cc2)ccc1=O
Criterion not met

====

ASSAY_NOTES: qHTS Assay for Lipid Storage Modulators in Drosophila S3 Cells; note: potency is the fitted concentration of half-maximal effect
SETTINGS: BODIPY lipid droplet fluorescence, 18-24 h, cells fed with added oleic acid; series mostly up to 46.1 µM
Screen size: about 320,000 compounds; about 2,100 (0.66%) were called active. Not shown: some 53% with an inconclusive outcome. The entries come from a sample that favours actives as a whole.
ASSAY_READOUT: Potency

1) O=C(Nc1cccc(-c2csc(Nc3cccc(C(F)(F)F)c3)n2)c1)c1cc([N+](=O)[O-])cc(C(F)(F)F)c1
inactive
2) Cc1nc(N2CCN(c3ccccc3O)CC2)c2c(-c3ccccc3)csc2n1
4.11 µM (active)
3) O=C(Nc1ccc(F)cc1)c1ccc(CN2CCc3ccccc3C2)cc1
5.17 µM (active)
4) Oc1ccccc1N1CCN(c2ncnc3scc(-c4ccccc4)c23)CC1
0.92 µM (active)
5) CCc1cc2c(=O)c(-c3nc4ccccc4n3C)c(C)oc2c(CN2CCOCC2)c1O
inactive
6) O=[N+]([O-])c1ccc(N2CCOCC2)cc1NCCCO
inactive
7) CC(=O)c1cccc(NC(=O)COC(=O)c2ccc(S(C)(=O)=O)c([N+](=O)[O-])c2)c1
inactive
8) Cc1ccc(CC(=O)N2CCN(c3ccc([N+](=O)[O-])cc3)CC2)cc1
7.31 µM (active)
9) CC(Oc1ccccc1)c1nnc(SCC(=O)NC2CC2)n1C (configuration not stated)
inactive
10) O=C(Cc1ccc(F)cc1)N1CCN(c2ccc([N+](=O)[O-])cc2)CC1
inactive
11) O=C(Cc1ccc([N+](=O)[O-])cc1)N1CCN(c2ccc([N+](=O)[O-])cc2)CC1
inactive
12) COC(=O)c1sccc1NC(=O)COc1ccc(F)cc1Cl
inactive
13) OC(CN1CCN(Cc2ccccc2)CC1)c1ccc(F)cc1 (configuration not stated)
inactive
14) C[N+]1(CCC(=O)c2ccccc2)CCCCC1
inactive
15) Cc1ccccc1NC(=O)COC(=O)c1ccc(S(=O)(=O)N2CCCC2)cc1
inactive
16) O=C(Nc1ccccc1)c1ccc(CN2CCc3ccccc3C2)cc1
inactive
17) CC(Sc1nccn1C)C(=O)Nc1ccccc1 (configuration not stated)
inactive
